Listed molecules paired with reported GRinf
test system: Mycobacterium tuberculosis Erdman (autoluminescent); experiment: GRinf, maximum normalised growth rate inhibition (three-drug combination) (unitless (-1 to 1)); higher = less effect (negative = killing); settings: in vitro model: cholesterol-high 0.2 mM; time point: constant (~7 days, model-specific)

Molecule	Tested Target	GRinf
COc1nc2ccc(Br)cc2cc1[C@@H](c1ccccc1)[C@@](O)(CCN(C)C)c1cccc2ccccc12 [bedaquiline] + CC(=O)NC[C@H]1CN(c2ccc(N3CCOCC3)c(F)c2)C(=O)O1 [linezolid] + O=[N+]([O-])c1cn2c(n1)OC[C@@H](OCc1ccc(OC(F)(F)F)cc1)C2 [pretomanid]	Mycobacterium tuberculosis Erdman (autoluminescent)	-0.376

Input line: Report GRinf for COc1nc2ccc(Br)cc2cc1[C@@H](c1ccccc1)[C@@](O)(CCN(C)C)c1cccc2ccccc12 [bedaquiline] + CC[C@@H](CO)NCCN[C@@H](CC)CO [ethambutol] + COc1c(N2C[C@@H]3CCCN[C@@H]3C2)c(F)cc2c(=O)c(C(=O)O)cn(C3CC3)c12 [moxifloxacin] please.
Output line: -0.654

====

system: Mycobacterium tuberculosis Erdman (autoluminescent); assay: Einf, fitted maximum growth inhibition of three-drug combination (fraction); higher = stronger maximal inhibition; conditions: in vitro model: valerate; time point: terminal (~4-5 doublings, model-specific)
Readout: Einf
Enter the number alone.

Guide cases for Einf, answers given:
Compound	Tested Target	Einf
CC[C@@H](CO)NCCN[C@@H](CC)CO [ethambutol] + NC(=O)c1cnccn1 [pyrazinamide] + CO[C@H]1/C=C/O[C@@]2(C)Oc3c(C)c(O)c4c(O)c(c(/C=N/N5CCN(C6CCCC6)CC5)c(O)c4c3C2=O)NC(=O)/C(C)=C\C=C\[C@H](C)[C@H](O)[C@@H](C)[C@@H](O)[C@@H](C)[C@H](OC(C)=O)[C@@H]1C [rifapentine]	Mycobacterium tuberculosis Erdman (autoluminescent)	0.909
CC(=O)NC[C@H]1CN(c2ccc(N3CCOCC3)c(F)c2)C(=O)O1 [linezolid] + COc1c(N2C[C@@H]3CCCN[C@@H]3C2)c(F)cc2c(=O)c(C(=O)O)cn(C3CC3)c12 [moxifloxacin] + O=[N+]([O-])c1cn2c(n1)OC[C@@H](OCc1ccc(OC(F)(F)F)cc1)C2 [pretomanid]	Mycobacterium tuberculosis Erdman (autoluminescent)	0.918
CC[C@@H](CO)NCCN[C@@H](CC)CO [ethambutol] + NC(=O)c1cnccn1 [pyrazinamide] + CO[C@H]1/C=C/O[C@@]2(C)Oc3c(C)c(O)c4c(O)c(c(/C=N/N5CCN(C)CC5)c(O)c4c3C2=O)NC(=O)/C(C)=C\C=C\[C@H](C)[C@H](O)[C@@H](C)[C@@H](O)[C@@H](C)[C@H](OC(C)=O)[C@@H]1C [rifampicin]	Mycobacterium tuberculosis Erdman (autoluminescent)	0.92
COc1nc2ccc(Br)cc2cc1[C@@H](c1ccccc1)[C@@](O)(CCN(C)C)c1cccc2ccccc12 [bedaquiline] + CC(C)/N=c1\cc2n(-c3ccc(Cl)cc3)c3ccccc3nc-2cc1Nc1ccc(Cl)cc1 [clofazimine] + CC(=O)NC[C@H]1CN(c2ccc(N3CCOCC3)c(F)c2)C(=O)O1 [linezolid]	Mycobacterium tuberculosis Erdman (autoluminescent)	0.944
CC[C@@H](CO)NCCN[C@@H](CC)CO [ethambutol] + CC(=O)NC[C@H]1CN(c2ccc(N3CCOCC3)c(F)c2)C(=O)O1 [linezolid] + COc1c(N2C[C@@H]3CCCN[C@@H]3C2)c(F)cc2c(=O)c(C(=O)O)cn(C3CC3)c12 [moxifloxacin]	Mycobacterium tuberculosis Erdman (autoluminescent)	0.938

Input line: Mycobacterium tuberculosis Erdman (autoluminescent) / Einf / CC(C)/N=c1\cc2n(-c3ccc(Cl)cc3)c3ccccc3nc-2cc1Nc1ccc(Cl)cc1 [clofazimine] + NNC(=O)c1ccncc1 [isoniazid] + O=[N+]([O-])c1cn2c(n1)OC[C@@H](OCc1ccc(OC(F)(F)F)cc1)C2 [pretomanid] : value?
Output line: 0.942

Input line: For Mycobacterium tuberculosis Erdman (autoluminescent), provide Einf of CC(C)/N=c1\cc2n(-c3ccc(Cl)cc3)c3ccccc3nc-2cc1Nc1ccc(Cl)cc1 [clofazimine] + CC(=O)NC[C@H]1CN(c2ccc(N3CCOCC3)c(F)c2)C(=O)O1 [linezolid] + NC(=O)c1cnccn1 [pyrazinamide] please.
Output line: 0.874
